molecular target: melanocortin-1 receptor (MC-1r) on murine melanocytes (line S91 Cloudman) (murine) (UniProt Q01727); assay: cell-based or functional assay
Sequence (Q01727 whole entry): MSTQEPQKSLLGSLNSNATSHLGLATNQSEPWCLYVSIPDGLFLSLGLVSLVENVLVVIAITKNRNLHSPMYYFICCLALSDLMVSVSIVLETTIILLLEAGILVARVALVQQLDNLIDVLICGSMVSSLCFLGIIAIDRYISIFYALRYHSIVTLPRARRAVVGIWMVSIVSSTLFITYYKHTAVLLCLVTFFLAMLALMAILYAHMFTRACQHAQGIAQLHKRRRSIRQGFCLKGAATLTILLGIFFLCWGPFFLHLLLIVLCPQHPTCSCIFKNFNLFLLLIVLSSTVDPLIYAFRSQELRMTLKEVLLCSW
[ ]: non-standard residue; d: D form. The star is where a group is joined. dPhe(4-NO2) = N[C@H](Cc1ccc([N+](=O)[O-])cc1)C(=O)O; Benzenesulfonyl = O=S(=O)(c1ccccc1)*; d(hPhe) = N[C@H](CCc1ccccc1)C(=O)O; d2Thi = N[C@H](Cc1cccs1)C(=O)O; NMeNle = CCCC[C@H](NC)C(=O)O; PyrProp = pyridinepropionyl; Tos = Cc1ccc(S(=O)(=O)*)cc1; Nle = CCCC[C@H](N)C(=O)O
# reported cAMP production (as % of α-MSH); entries follow

# BINDER, cAMP production (as % of α-MSH)
records = [
    ("Benzenesulfonyl-[Nle]AH[dF]KW-NH2 (SMILES CCCC[C@H](NS(=O)(=O)c1ccccc1)C(=O)N[C@@H](C)C(=O)N[C@@H](Cc1c[nH]cn1)C(=O)N[C@H](Cc1ccccc1)C(=O)N[C@@H](CCCCN)C(=O)N[C@@H](Cc1c[nH]c2ccccc12)C(N)=O) [Compound No. 6 in the Table, BzlSO2-Nle-Ala-His-DPhe-Lys-Trp-NH2]", "55 % of α-MSH"),
    ("Tos-[Nle]AH[dF]RW-NH2 [Compound No. 5 in the Table, Tos-Nle-Ala-His-DPhe-Arg-Trp-NH2]", "100 % of α-MSH"),
    ("PyrProp-[Nle]AH[dPhe(4-NO2)]RW-NH2 [Compound No. 11 in the Table, PyrProp-Nle-Ala-His-DpNO2Phe-Arg-Trp-NH2]", "150 % of α-MSH"),
    ("Ac-[NMeNle]AH[d(hPhe)]RW-NH2 [Compound No. 13 in the Table, Ac-MeNle-Ala-His-DHomoPhe-Arg-Trp-NH2]", "55 % of α-MSH"),
    ("Ac-[Nle]AH[d2Thi]RW-NH2 [Compound No. 3 in the Table, Ac-Nle-Ala-His-DThi-Arg-Trp-NH2]", "10 % of α-MSH"),
]

Data request: I have this binder here, Benzenesulfonyl-[Nle]AH[dF]RW-NH2 [Compound No. 4 in the Table, BzlSO2-Nle-Ala-His-DPhe-Arg-Trp-NH2] , and I need its recorded cAMP production (as % of α-MSH).
Data returned: 70 % of α-MSH
